Give measured pIC50 for each item. Keep answers brief.
Target chain: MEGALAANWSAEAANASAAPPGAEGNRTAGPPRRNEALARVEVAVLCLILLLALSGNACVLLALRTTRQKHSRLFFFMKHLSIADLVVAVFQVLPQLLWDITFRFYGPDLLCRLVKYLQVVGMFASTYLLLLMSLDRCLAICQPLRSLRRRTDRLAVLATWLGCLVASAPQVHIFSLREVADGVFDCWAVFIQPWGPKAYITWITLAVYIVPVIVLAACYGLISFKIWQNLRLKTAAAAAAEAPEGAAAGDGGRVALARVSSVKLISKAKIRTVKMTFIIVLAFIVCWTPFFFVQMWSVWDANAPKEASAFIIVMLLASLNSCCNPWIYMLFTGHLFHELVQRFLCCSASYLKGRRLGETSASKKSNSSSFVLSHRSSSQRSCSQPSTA
// field semantics: pIC50 = negative decimal log of concentration (mol/L)

Report pIC50 for COc1cc(-c2ccccc2C)c(Cl)cc1C(=O)N1Cc2ccc(C(=O)N3CCN(CCO)CC3)n2Cc2ccccc21 [Example 39] please.
8.52

Lookup Cc1cc(C(=O)N2Cc3ccc(C(=O)N4CCN(C[C@H](O)CO)CC4)n3Cc3ccccc32)ccc1-c1ccccc1C(F)(F)F [Example 5]
7.45

Lookup Cc1cc(C(=O)N2Cc3ccc(C(=O)NC(CO)(CO)CO)n3Cc3ccccc32)ccc1-c1ccccc1C(F)(F)F [Example 3]
8.19

Lookup Cc1cc(C(=O)N2Cc3ccc(C(=O)N(CCO)CCO)n3Cc3ccccc32)ccc1-c1ccccc1C(F)(F)F [Example 1]
8.86

Lookup Cc1cc(C(=O)N2Cc3ccc(C(=O)N(C)CC4COC(=O)O4)n3Cc3ccccc32)ccc1-c1ccccc1C(F)(F)F (centres unmarked) [Example 11]
8.44

----------
The following compounds have recorded IC50 on UniProt:P37288.
Sequence (P37288 whole entry): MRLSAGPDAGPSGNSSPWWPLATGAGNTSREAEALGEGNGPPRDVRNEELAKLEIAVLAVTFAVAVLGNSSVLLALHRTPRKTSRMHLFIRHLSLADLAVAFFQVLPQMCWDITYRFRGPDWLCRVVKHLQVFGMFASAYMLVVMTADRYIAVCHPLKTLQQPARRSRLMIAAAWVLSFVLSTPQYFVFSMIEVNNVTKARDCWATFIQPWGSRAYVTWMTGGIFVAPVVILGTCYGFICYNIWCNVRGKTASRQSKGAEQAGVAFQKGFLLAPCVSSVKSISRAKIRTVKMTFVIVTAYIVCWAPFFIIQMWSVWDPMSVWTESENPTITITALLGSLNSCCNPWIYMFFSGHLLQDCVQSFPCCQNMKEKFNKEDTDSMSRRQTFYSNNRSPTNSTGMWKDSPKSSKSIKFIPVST
Kindly provide the numeric value in nM only, without the unit symbol.

API: value(readout=IC50, system=UniProt:P37288) for record COc1ccccc1-c1ccc(C(=O)N2Cc3ccc(C(=O)N(C)C[C@H](O)[C@@H](O)[C@H](O)[C@H](O)CO)n3Cc3ccccc32)cc1C
227

Lookup COC[C@@H](O)CN1CCN(C(=O)c2ccc3n2Cc2ccccc2N(C(=O)c2ccc(-c4ccccc4C(F)(F)F)c(C)c2)C3)CC1
2010

Lookup COc1ccccc1-c1ccc(C(=O)N2Cc3ccc(C(=O)N(C)CC(O)CO)n3Cc3ccccc32)cc1C (stereo not drawn)
144

----------
# target_entity: human oxytocin receptor (Homo sapiens, UniProt P30559)
# Sequence (P30559 1-389): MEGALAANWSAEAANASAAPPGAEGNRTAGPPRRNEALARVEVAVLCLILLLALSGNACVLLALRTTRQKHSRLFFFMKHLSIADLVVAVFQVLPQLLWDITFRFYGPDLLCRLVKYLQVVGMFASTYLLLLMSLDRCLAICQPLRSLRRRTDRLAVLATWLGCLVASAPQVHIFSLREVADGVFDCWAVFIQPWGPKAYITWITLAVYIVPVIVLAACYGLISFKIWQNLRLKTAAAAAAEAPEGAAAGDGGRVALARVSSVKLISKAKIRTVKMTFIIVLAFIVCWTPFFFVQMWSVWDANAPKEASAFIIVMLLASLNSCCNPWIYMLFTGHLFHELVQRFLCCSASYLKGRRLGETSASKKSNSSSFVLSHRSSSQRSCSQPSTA
measured_parameter: IC50 (nM)
Kindly provide the numeric value in nM only, without the unit symbol.

Report IC50 for COC[C@H](O)CN1CCN(C(=O)c2ccc3n2Cc2ccccc2N(C(=O)c2ccc(-c4ccccc4C(F)(F)F)c(C)c2)C3)CC1 [Example 8] please.
7.55

Lookup Cc1cc(C(=O)N2Cc3ccc(C(=O)N(C)CC(O)CO)n3Cc3ccccc32)ccc1-c1ccccc1C(F)(F)F (stereo not drawn) [Example 2]
3.09

Lookup COc1cc(C(=O)N2Cc3ccc(C(=O)N(C)C[C@@H](O)[C@H](O)[C@H](O)[C@@H](O)CO)n3Cc3ccccc32)ccc1-c1ccccc1C(F)(F)F (stereo in doubt) [Example 23]
4.09

Lookup COC[C@@H](O)CN1CCN(C(=O)c2ccc3n2Cc2ccccc2N(C(=O)c2ccc(-c4ccccc4C(F)(F)F)c(C)c2)C3)CC1 [Example 9]
26.7

Lookup COc1cc(-c2ccccc2C(F)(F)F)c(Cl)cc1C(=O)N1Cc2ccc(C(=O)N(C)C[C@H](O)[C@@H](O)[C@H](O)[C@H](O)CO)n2Cc2ccccc21 [Example 20]
1.09

Lookup COc1cc(C(=O)N2Cc3ccc(C(=O)N(C)CC(O)CN(C)C)n3Cc3ccccc32)ccc1-c1ccccc1C(F)(F)F (stereo not drawn) [Example 22]
1.47
